Target Or System: human α1b adrenergic receptor (Homo sapiens, UniProt P35368)
Sequence (P35368 whole entry): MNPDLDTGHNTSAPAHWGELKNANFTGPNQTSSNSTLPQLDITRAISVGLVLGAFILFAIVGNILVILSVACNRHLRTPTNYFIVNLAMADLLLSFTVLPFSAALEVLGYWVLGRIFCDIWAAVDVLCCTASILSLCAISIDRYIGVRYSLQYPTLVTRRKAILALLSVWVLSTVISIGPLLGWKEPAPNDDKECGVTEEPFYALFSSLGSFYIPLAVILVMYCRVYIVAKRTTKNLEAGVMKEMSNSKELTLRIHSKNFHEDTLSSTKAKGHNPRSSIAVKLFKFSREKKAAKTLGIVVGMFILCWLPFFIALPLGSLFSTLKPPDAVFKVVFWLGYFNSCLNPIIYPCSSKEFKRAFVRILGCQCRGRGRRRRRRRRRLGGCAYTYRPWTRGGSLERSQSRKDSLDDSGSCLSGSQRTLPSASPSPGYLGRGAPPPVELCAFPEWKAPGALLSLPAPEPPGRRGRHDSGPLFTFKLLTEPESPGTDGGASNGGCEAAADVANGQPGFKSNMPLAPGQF
Experiment Summary: Cross-reactivity binding, cloned human α1b receptor
Where a name gives a salt, the structure may show the parent alone.
Readout Label: Ki (nM)
Number only, in nM; omit the unit.

// sample CC(=O)O[C@H]1CC[C@H](Nc2nc(Nc3ccccc3)c3ccccc3n2)CC1 [Compound 7, Hydrochloride] , its Ki was 832

====

Target Or System: human 5HT2 receptor (Homo sapiens, UniProt P28223)
Sequence (P28223 whole entry): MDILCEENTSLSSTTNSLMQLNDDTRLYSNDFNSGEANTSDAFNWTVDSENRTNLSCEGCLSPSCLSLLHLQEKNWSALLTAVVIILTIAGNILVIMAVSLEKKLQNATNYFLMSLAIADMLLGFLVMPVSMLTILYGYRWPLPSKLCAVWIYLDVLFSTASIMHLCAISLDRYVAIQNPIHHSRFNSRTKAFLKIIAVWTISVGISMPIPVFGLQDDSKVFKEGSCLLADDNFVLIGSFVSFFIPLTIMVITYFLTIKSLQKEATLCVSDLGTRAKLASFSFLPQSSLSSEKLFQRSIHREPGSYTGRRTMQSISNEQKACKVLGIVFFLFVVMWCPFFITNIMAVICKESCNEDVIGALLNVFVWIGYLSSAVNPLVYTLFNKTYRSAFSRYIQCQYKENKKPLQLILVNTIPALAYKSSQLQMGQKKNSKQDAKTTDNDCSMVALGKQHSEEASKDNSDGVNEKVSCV
Experiment Summary: Cross-reactivity binding, human 5HT2 receptor
Readout Label: pKi
// pKi is dimensionless: -log10 of concentration (M)

// sample Cl.c1ccc(Nc2nc(Nc3ccccc3)c3ccccc3n2)cc1 [Compound 1, Hydrochloride] , its pKi was 6.34

====

Target Or System: rat Y2 receptor (Rattus norvegicus, UniProt Q9ERC0)
Sequence (Q9ERC0 1-381): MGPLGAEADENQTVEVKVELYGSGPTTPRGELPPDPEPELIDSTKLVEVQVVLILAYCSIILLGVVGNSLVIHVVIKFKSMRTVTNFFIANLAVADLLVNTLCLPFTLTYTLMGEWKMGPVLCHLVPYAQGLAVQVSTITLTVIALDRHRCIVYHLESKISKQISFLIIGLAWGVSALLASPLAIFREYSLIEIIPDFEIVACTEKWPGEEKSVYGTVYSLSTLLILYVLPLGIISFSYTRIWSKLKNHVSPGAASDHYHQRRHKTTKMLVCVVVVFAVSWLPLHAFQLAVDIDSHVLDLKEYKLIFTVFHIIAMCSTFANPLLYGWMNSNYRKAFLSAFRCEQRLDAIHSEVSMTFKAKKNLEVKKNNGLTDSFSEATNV
Readout Label: pKi
// pKi is dimensionless: -log10 of concentration (M)

// sample NC(N)=NCCC[C@@H](NC(=O)C(c1ccccc1)c1ccccc1)C(=O)NCc1ccc(O)cc1 , its pKi was 4.18

====

Target Or System: UniProtKB P25929
Sequence (P25929 whole entry): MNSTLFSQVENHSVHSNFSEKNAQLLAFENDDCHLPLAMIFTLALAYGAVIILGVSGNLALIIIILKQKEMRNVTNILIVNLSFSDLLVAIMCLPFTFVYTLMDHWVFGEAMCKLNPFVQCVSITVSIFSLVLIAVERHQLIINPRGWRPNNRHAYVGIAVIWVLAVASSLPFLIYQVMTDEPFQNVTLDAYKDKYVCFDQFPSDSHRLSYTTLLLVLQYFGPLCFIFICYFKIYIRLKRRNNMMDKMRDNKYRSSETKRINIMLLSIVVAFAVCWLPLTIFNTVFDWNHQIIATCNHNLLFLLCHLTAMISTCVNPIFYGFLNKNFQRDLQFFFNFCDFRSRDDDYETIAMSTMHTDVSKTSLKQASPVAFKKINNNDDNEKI
Experiment Summary: ^125I-PYY binding of compounds to human Y1 receptor, stably transfected cells
Structures can show the parent of a compound that is named as a salt.
Readout Label: pKi
// pKi is dimensionless: -log10 of concentration (M)

// sample CC(=O)O[C@H]1CC[C@H](Nc2nc(Nc3ccccc3)c3ccccc3n2)CC1 [Compound 7, Hydrochloride] , its pKi was 5.66

====

Target Or System: human 5HT1F receptor (Homo sapiens, UniProt P30939)
Sequence (P30939 1-366): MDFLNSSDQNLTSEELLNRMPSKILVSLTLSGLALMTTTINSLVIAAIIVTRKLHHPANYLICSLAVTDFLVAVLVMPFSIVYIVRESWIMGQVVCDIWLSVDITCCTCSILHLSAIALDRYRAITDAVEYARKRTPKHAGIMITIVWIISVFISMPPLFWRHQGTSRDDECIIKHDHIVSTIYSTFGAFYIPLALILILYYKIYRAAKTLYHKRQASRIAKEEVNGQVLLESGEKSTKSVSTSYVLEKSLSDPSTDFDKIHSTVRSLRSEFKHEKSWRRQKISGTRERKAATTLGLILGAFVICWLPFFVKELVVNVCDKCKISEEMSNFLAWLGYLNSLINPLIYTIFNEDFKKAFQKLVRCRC
Experiment Summary: Cross-reactivity binding, human 5HT1F receptor
Where a name gives a salt, the structure may show the parent alone.
Readout Label: Ki (µM)
Number only, in µM; omit the unit.

Entry CC(=O)O[C@H]1CC[C@H](Nc2nc(Nc3ccccc3)c3ccccc3n2)CC1 [Compound 7, Hydrochloride] , tested on human 5HT1F receptor (Homo sapiens, UniProt P30939), has a reported Ki of 5.01
